# Tested on: Rattus norvegicus
# measurementProtocol: Dose normalized AUC in rat at 2 mg/kg, po
# Assay type: ADME, organism-based
# assayConditions: in vivo
quantityName: AUC/dose (µM·h/mg/kg)

Sample records with AUC/dose:
smilesRepr	measuredOn	quantityName	resultNumber
CCc1nnc([C@H]2[C@@H]3CN(C(=O)c4ccc(C[C@@H]5CC[C@H]([C@H](O)c6ccccc6)N5)cc4)C[C@@H]32)o1	Rattus norvegicus	AUC/dose	0.21
O=C(c1ccc(C[C@@H]2CC[C@H]([C@H](O)c3ccccc3)N2)cc1)N1CCC2(CCOC2=O)CC1	Rattus norvegicus	AUC/dose	0.21

[A] CC1(C)CC2(CCN(C(=O)c3ccc(C[C@@H]4CC[C@H]([C@H](O)c5ccccc5)N4)cc3)CC2)C(=O)O1
[B] O=C(c1ccc(C[C@@H]2CC[C@H]([C@H](O)c3ccccc3)N2)cc1)N1C[C@@H]2[C@H](C1)[C@H]2c1nnco1
[C] Cn1nnc([C@H]2[C@@H]3CN(C(=O)c4ccc(C[C@@H]5CC[C@H]([C@H](O)c6ccccc6)N5)cc4)C[C@@H]32)n1
Request: # rank_down: sort by AUC/dose, max first Lab note: final answer is the ordered label list.
Result: C, B, A
